Collected IC50 values appear next to each entry.
# SYSTEM: NLuc-TTBK2 (Homo sapiens, UniProt Q6IQ55)
# Construct: host or cells: HEK293
# Sequence (Q6IQ55 whole entry): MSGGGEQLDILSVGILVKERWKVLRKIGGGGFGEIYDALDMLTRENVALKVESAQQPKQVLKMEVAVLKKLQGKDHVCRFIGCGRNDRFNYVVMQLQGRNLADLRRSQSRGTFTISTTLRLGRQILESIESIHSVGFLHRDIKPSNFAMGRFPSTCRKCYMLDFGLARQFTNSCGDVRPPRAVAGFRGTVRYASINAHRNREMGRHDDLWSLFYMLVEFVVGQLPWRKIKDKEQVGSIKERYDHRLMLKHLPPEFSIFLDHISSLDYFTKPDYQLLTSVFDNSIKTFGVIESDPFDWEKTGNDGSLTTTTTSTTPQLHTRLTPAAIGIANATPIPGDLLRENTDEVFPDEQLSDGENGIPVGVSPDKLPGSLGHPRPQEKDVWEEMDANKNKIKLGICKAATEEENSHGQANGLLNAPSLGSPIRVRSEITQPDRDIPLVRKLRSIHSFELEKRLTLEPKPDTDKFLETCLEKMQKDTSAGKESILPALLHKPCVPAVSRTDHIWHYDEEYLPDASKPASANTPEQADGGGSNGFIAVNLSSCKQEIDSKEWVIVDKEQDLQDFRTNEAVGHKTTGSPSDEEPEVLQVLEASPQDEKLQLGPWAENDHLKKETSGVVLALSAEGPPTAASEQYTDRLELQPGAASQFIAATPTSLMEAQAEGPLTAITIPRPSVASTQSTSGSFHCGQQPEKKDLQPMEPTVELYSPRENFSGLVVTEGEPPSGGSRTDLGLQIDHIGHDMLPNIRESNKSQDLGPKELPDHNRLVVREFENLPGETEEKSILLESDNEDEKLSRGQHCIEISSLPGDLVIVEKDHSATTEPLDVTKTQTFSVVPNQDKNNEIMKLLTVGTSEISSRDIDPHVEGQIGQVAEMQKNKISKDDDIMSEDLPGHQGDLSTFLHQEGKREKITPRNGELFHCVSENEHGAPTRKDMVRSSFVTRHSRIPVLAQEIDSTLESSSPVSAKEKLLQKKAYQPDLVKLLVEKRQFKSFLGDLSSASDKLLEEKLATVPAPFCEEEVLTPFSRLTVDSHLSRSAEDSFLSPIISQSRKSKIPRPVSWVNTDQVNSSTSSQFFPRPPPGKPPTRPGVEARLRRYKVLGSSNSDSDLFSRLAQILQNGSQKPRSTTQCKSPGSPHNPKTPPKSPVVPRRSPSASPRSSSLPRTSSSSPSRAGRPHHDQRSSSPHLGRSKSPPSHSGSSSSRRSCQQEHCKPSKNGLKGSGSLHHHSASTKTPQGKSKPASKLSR
# PROCEDURE TEXT: TTBK2 NanoBRET cellular target engagement assay in HEK293 cells
# Assay type: cell-based
# MEASUREMENT CONTEXT: permeabilized HEK293 cells (digitonin), 2 μM tracer 29; read-out: TTBK2 permeabilized cell NB IC50
// return numeric value only (unit: µM, not printed)

1. CC(C)(O)C#Cc1ccc2[nH]c3c(c2c1)-c1nc(N)ncc1CCCC3 = 17
2. CC(C)(O)C#Cc1ccc2[nH]c3c(c2c1)-c1nc(N)ncc1CC3 = 3.6

With those in mind, consider the next compound.
Exam item: // map CC(C)(O)C#Cc1ccc2[nH]cc(-c3ccnc(N)n3)c2c1 to recorded IC50 (system: NLuc-TTBK2 (Homo sapiens, UniProt Q6IQ55))
Marked response: 2.52
